// reported glycan array binding signal (z-score) for each item listed
# ASSAYED_SYSTEM: GlcNAc(b1-3)GalNAc
# PROCEDURE_TEXT: glycan array binding signal (z-score within array); higher = stronger binding
# TEST_CONTEXT: glycan notation: IUPAC condensed, linker removed
Many of the other results were omitted from the sample, so the strongest signals are more common in it than they were.
Answer field: number only, no words.

Exercise: # input binder: Pwp6 (Candida glabrata) (protein) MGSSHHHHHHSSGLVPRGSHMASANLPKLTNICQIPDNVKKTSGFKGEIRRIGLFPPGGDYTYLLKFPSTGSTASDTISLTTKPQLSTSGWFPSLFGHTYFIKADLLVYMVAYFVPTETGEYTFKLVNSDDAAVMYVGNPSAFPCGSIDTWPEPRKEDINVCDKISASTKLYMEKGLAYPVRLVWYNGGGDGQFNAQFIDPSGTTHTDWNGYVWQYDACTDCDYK ; wanted: its glycan array binding signal (z-score)
Key: -0.863

Exercise: # repeat for Epa1to9 (Candida glabrata) (protein) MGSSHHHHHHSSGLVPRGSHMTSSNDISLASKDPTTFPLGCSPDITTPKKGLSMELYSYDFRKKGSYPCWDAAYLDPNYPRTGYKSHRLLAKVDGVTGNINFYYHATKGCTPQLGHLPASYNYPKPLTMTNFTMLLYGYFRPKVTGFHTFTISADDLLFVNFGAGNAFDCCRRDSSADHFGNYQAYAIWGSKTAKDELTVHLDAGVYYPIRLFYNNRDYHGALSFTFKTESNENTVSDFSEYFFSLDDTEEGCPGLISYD
Key: -0.352

Exercise: # repeat for SefD (Salmonella enterica), Q9L6K6 (protein) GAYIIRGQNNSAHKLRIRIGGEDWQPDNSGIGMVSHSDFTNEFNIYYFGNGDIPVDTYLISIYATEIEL
Key: -0.427

Exercise: # repeat for Loc1 (Escherichia coli) (protein) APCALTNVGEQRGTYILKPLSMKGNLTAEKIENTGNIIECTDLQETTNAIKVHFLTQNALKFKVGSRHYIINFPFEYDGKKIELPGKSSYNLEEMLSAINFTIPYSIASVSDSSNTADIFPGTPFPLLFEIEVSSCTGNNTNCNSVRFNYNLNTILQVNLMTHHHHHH
Key: -0.454

Exercise: # repeat for RS2L (Ralstonia solanacearum), B5RXL5_RALSO (protein) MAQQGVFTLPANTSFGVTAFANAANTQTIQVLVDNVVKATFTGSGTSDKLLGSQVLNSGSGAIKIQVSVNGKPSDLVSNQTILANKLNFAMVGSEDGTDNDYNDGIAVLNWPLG
Key: -0.249
